Reference for the values: the MegaScale stability set (Tsuboyama et al. 2023)

B1: EEHEE_rd4_0763 (parent)
chain: LTVHVGNVTYHFDNPEQAEEWAKRMAKKYQGQIHVKDGQFRIE

Variants of: B1
Assay: folding stability dG (cDNA display proteolysis); higher = more stable
Settings: PBS, room temperature
Label satisfied for high-side folding stability dG (at or above 6 kJ/mol) and not satisfied for low-side folding stability dG (below it).

Query block: Does the reported folding stability dG for T2I fall at or above the 6 kJ/mol mark?
Result block: satisfied

Query block: Does the reported folding stability dG for A26K fall at or above the 6 kJ/mol mark?
Result block: not satisfied

Query block: Does the reported folding stability dG for K28L fall at or above the 6 kJ/mol mark?
Result block: satisfied

Query block: Does the reported folding stability dG for H4E fall at or above the 6 kJ/mol mark?
Result block: not satisfied

Query block: Does the reported folding stability dG for Q30W fall at or above the 6 kJ/mol mark?
Result block: not satisfied

Query block: Does the reported folding stability dG for E19G fall at or above the 6 kJ/mol mark?
Result block: not satisfied

Query block: Does the reported folding stability dG for H34I fall at or above the 6 kJ/mol mark?
Result block: satisfied

Query block: Does the reported folding stability dG for I33Y fall at or above the 6 kJ/mol mark?
Result block: not satisfied

Query block: Does the reported folding stability dG for Q30I fall at or above the 6 kJ/mol mark?
Result block: not satisfied

Query block: Does the reported folding stability dG for E16T fall at or above the 6 kJ/mol mark?
Result block: satisfied

Query block: Does the reported folding stability dG for G31W fall at or above the 6 kJ/mol mark?
Result block: satisfied

Query block: Does the reported folding stability dG for V35E fall at or above the 6 kJ/mol mark?
Result block: not satisfied

Query block: Does the reported folding stability dG for G6T fall at or above the 6 kJ/mol mark?
Result block: not satisfied

Query block: Does the reported folding stability dG for Y29S fall at or above the 6 kJ/mol mark?
Result block: not satisfied

Query block: Does the reported folding stability dG for Q30A fall at or above the 6 kJ/mol mark?
Result block: satisfied

Query block: Does the reported folding stability dG for L1N fall at or above the 6 kJ/mol mark?
Result block: satisfied

Query block: Does the reported folding stability dG for N7Y fall at or above the 6 kJ/mol mark?
Result block: satisfied

Query block: Does the reported folding stability dG for Y29L fall at or above the 6 kJ/mol mark?
Result block: satisfied

Query block: Does the reported folding stability dG for Q17A fall at or above the 6 kJ/mol mark?
Result block: satisfied

Query block: Does the reported folding stability dG for K36M fall at or above the 6 kJ/mol mark?
Result block: satisfied

Query block: Does the reported folding stability dG for R41D fall at or above the 6 kJ/mol mark?
Result block: not satisfied

Query block: Does the reported folding stability dG for F40W fall at or above the 6 kJ/mol mark?
Result block: satisfied

Query block: Does the reported folding stability dG for E20I fall at or above the 6 kJ/mol mark?
Result block: satisfied

Query block: Does the reported folding stability dG for Q39G fall at or above the 6 kJ/mol mark?
Result block: satisfied

Query block: Does the reported folding stability dG for Y10W fall at or above the 6 kJ/mol mark?
Result block: satisfied

Query block: Does the reported folding stability dG for F40A fall at or above the 6 kJ/mol mark?
Result block: not satisfied

Query block: Does the reported folding stability dG for Y29E fall at or above the 6 kJ/mol mark?
Result block: not satisfied

Query block: Does the reported folding stability dG for D13S fall at or above the 6 kJ/mol mark?
Result block: satisfied

Query block: Does the reported folding stability dG for G38V fall at or above the 6 kJ/mol mark?
Result block: not satisfied

Query block: Does the reported folding stability dG for A22F fall at or above the 6 kJ/mol mark?
Result block: not satisfied

Query block: Does the reported folding stability dG for D37E fall at or above the 6 kJ/mol mark?
Result block: not satisfied

Query block: Does the reported folding stability dG for E16W fall at or above the 6 kJ/mol mark?
Result block: satisfied

Query block: Does the reported folding stability dG for D13Q fall at or above the 6 kJ/mol mark?
Result block: satisfied

Query block: Does the reported folding stability dG for A26H fall at or above the 6 kJ/mol mark?
Result block: not satisfied

Query block: Does the reported folding stability dG for Q39W fall at or above the 6 kJ/mol mark?
Result block: not satisfied

Query block: Does the reported folding stability dG for V5Q fall at or above the 6 kJ/mol mark?
Result block: not satisfied

Query block: Does the reported folding stability dG for M25K fall at or above the 6 kJ/mol mark?
Result block: not satisfied

Query block: Does the reported folding stability dG for W21S fall at or above the 6 kJ/mol mark?
Result block: not satisfied

Query block: Does the reported folding stability dG for A22G fall at or above the 6 kJ/mol mark?
Result block: not satisfied

Query block: Does the reported folding stability dG for H11Y fall at or above the 6 kJ/mol mark?
Result block: satisfied

Query block: Does the reported folding stability dG for T2L fall at or above the 6 kJ/mol mark?
Result block: satisfied

Query block: Does the reported folding stability dG for N7S fall at or above the 6 kJ/mol mark?
Result block: satisfied

Query block: Does the reported folding stability dG for M25G fall at or above the 6 kJ/mol mark?
Result block: not satisfied

Query block: Does the reported folding stability dG for L1F fall at or above the 6 kJ/mol mark?
Result block: satisfied

Query block: Does the reported folding stability dG for L1Y fall at or above the 6 kJ/mol mark?
Result block: satisfied

Query block: Does the reported folding stability dG for M25L fall at or above the 6 kJ/mol mark?
Result block: satisfied

Query block: Does the reported folding stability dG for K27L fall at or above the 6 kJ/mol mark?
Result block: satisfied

Query block: Does the reported folding stability dG for Q32M fall at or above the 6 kJ/mol mark?
Result block: satisfied

Query block: Does the reported folding stability dG for E16D fall at or above the 6 kJ/mol mark?
Result block: satisfied

Query block: Does the reported folding stability dG for V35T fall at or above the 6 kJ/mol mark?
Result block: not satisfied

Query block: Does the reported folding stability dG for N14S fall at or above the 6 kJ/mol mark?
Result block: satisfied

Query block: Does the reported folding stability dG for N14I fall at or above the 6 kJ/mol mark?
Result block: satisfied

Query block: Does the reported folding stability dG for I33W fall at or above the 6 kJ/mol mark?
Result block: not satisfied

Query block: Does the reported folding stability dG for K23H fall at or above the 6 kJ/mol mark?
Result block: satisfied

Query block: Does the reported folding stability dG for R24Y fall at or above the 6 kJ/mol mark?
Result block: satisfied

Query block: Does the reported folding stability dG for Q32D fall at or above the 6 kJ/mol mark?
Result block: not satisfied

Query block: Does the reported folding stability dG for A18T fall at or above the 6 kJ/mol mark?
Result block: not satisfied

Query block: Does the reported folding stability dG for H34E fall at or above the 6 kJ/mol mark?
Result block: satisfied

Query block: Does the reported folding stability dG for N14Q fall at or above the 6 kJ/mol mark?
Result block: not satisfied

Query block: Does the reported folding stability dG for E19K fall at or above the 6 kJ/mol mark?
Result block: satisfied

Query block: Does the reported folding stability dG for P15K fall at or above the 6 kJ/mol mark?
Result block: satisfied

Query block: Does the reported folding stability dG for G38C fall at or above the 6 kJ/mol mark?
Result block: satisfied

Query block: Does the reported folding stability dG for A26L fall at or above the 6 kJ/mol mark?
Result block: not satisfied

Query block: Does the reported folding stability dG for D13M fall at or above the 6 kJ/mol mark?
Result block: satisfied

Query block: Does the reported folding stability dG for G6V fall at or above the 6 kJ/mol mark?
Result block: not satisfied

Query block: Does the reported folding stability dG for F12L fall at or above the 6 kJ/mol mark?
Result block: not satisfied

Query block: Does the reported folding stability dG for E19V fall at or above the 6 kJ/mol mark?
Result block: satisfied

Query block: Does the reported folding stability dG for K27H fall at or above the 6 kJ/mol mark?
Result block: satisfied

Query block: Does the reported folding stability dG for Y10H fall at or above the 6 kJ/mol mark?
Result block: not satisfied

Query block: Does the reported folding stability dG for I42F fall at or above the 6 kJ/mol mark?
Result block: not satisfied

Query block: Does the reported folding stability dG for K36F fall at or above the 6 kJ/mol mark?
Result block: satisfied
